The measurements presented in this section are drawn from ChEMBL document CHEMBL3352514.

assay: Half life in human plasma; assay type: ADME, cell-free
Known half-life of a selection of molecules
Give just the numeric value; h need not be written.

Before answering, review these 2 worked examples.
[[record]]
mol_smiles = "C=C1C(=O)O[C@H]2[C@H]1CC/C(COC(=O)NCCc1ccccn1)=C\\CC[C@@]1(C)O[C@@H]21"
number = 1.67

[[record]]
mol_smiles = "C=C1C(=O)O[C@H]2[C@H]1CC/C(COC(=O)Nc1n[nH]c(SC)n1)=C\\CC[C@@]1(C)O[C@@H]21"
number = 1.67


Exercise: Return reported half-life; argument: `C=C1C(=O)O[C@H]2[C@H]1CC/C(COC(=O)NCCN1CCCC1)=C\CC[C@@]1(C)O[C@@H]21`
Key: 1.67

Exercise: Return reported half-life; argument: `C=C1C(=O)O[C@H]2[C@H]1CC/C(COC(=O)N1CCC(F)(F)CC1)=C\CC[C@@]1(C)O[C@@H]21`
Key: 8

Exercise: Return reported half-life; argument: `C=C1C(=O)O[C@H]2[C@H]1CC/C(COC(=O)NCCN1CCOCC1)=C\CC[C@@]1(C)O[C@@H]21`
Key: 1.67

* * *

Known GI50 of a selection of compounds
tested on: Malme-3M; experiment: Growth inhibition of human MALME-3M cells; assay type: functional
Give just the numeric value; µM need not be written.

Before answering, review these 4 worked examples.
[[record]]
mol_smiles = "C=C1C(=O)O[C@H]2[C@H]1CC/C(COC(=O)N1CCC(F)(F)CC1)=C\\CC[C@@]1(C)O[C@@H]21"
number = 1.9

[[record]]
mol_smiles = "C=C1C(=O)O[C@H]2[C@H]1CC/C(COC(=O)NCCN1CCCC1)=C\\CC[C@@]1(C)O[C@@H]21"
number = 4.18

[[record]]
mol_smiles = "C=C1C(=O)O[C@H]2[C@H]1CC/C(COC(=O)NCCN1CCOCC1)=C\\CC[C@@]1(C)O[C@@H]21"
number = 6.12

[[record]]
mol_smiles = "C=C1C(=O)O[C@H]2[C@H]1CC/C(COC(=O)Nc1n[nH]c(SC)n1)=C\\CC[C@@]1(C)O[C@@H]21"
number = 2.32


Now, please, on to the next compound.
Exercise: Return reported GI50; argument: `C=C1C(=O)O[C@H]2[C@H]1CC/C(COC(=O)NCCc1ccccn1)=C\CC[C@@]1(C)O[C@@H]21`
Key: 7.52

* * *

test system: HL-60(TB); test: Growth inhibition of human HL-60(TB) cells; format: functional
Endpoint: GI50 (nM)
Give just the numeric value; nM need not be written.

[[record]]
compound = "C/C1=C\\CC[C@@]2(C)O[C@@H]2[C@H]2OC(=O)C(CN(C)C)[C@@H]2CC1 (some centres undefined) [DIMETHYLAMINOPARTHENOLIDE]"
experimental_target = "HL-60(TB)"
number = 1580

[[record]]
compound = "C=C1C(=O)O[C@H]2[C@H]1CC/C(COC(=O)NCCN1CCCC1)=C\\CC[C@@]1(C)O[C@@H]21"
experimental_target = "HL-60(TB)"
number = 4150

[[record]]
compound = "C=C1C(=O)O[C@H]2[C@H]1CC/C(COC(=O)N1CCC(F)(F)CC1)=C\\CC[C@@]1(C)O[C@@H]21"
experimental_target = "HL-60(TB)"
number = 2040


Exercise: // lookup GI50 | system=HL-60(TB) | key= `C=C1C(=O)O[C@H]2[C@H]1CC/C(COC(=O)NCCN1CCOCC1)=C\CC[C@@]1(C)O[C@@H]21`
Key: 3590
